Data credit: PubChem BioAssay (NCI)

protocol.details: NCI Yeast Anticancer Drug Screen. Data for the mlh1 rad18 strain (AID 175)
conditions: S. cerevisiae mlh1 rad18 strain growth inhibition; at 5.0 µM (retest, dose inferred, filed as 0.5)
This is part of a sample that, as a whole, favours compounds with a hit. Of some 79,000 tested, about 15% had one in any assay. The source made the active and inactive calls. No stated cut-off is given here; in the data, active means growth inhibition above about 70%; inactive means the rest.
Write down one outcome, taken from active, inactive

Some entries whose results are on file:
[[record]]
molecule = "O=C1C=CC(=O)N1c1ccc(Br)cc1Cl"
label_class = "inactive"

[[record]]
molecule = "O=C1C(C(O)(C(F)(F)F)C(F)(F)F)CCC1C(O)(C(F)(F)F)C(F)(F)F (configuration not stated)"
label_class = "inactive"

[[record]]
molecule = "O=Cc1ccccc1B(O)O"
label_class = "inactive"


Hi, sorry to bother you, what did the test record for CCSc1c2ccccc2c(-c2nc(F)nc(F)n2)n1CCc1ccccc1 ?
inactive

Outcome logged for COc1ccc(C(=O)OCCc2ccccc2)cc1 in this assay:
inactive

What call does the record list for c1cc2ccc3cc4ncccc4c4ccc(c1)c2c34 ?
inactive

Kindly provide the recorded test outcome for the following molecule: O=C1c2ccccc2-c2ccc(NC(=O)C3CCCCC3C(=O)O)cc21 (configuration not stated)
inactive

Which outcome was entered for the molecule CNc1ccc2[nH]c3ccccc3c2c1 in this test?
inactive

# fetch the recorded call for Cc1ccc(SSc2ccc(C)cc2[N+](=O)[O-])c([N+](=O)[O-])c1 here
inactive

Write down the call the test reported for this molecule. Item: CCC1SC(=S)N(c2ccc(Cl)cc2)C1=O (configuration not stated)
inactive

Identify the outcome logged in this assay for the molecule shown: [O-]c1c2cc(-[n+]3c(-c4ccccc4)cc(-c4ccccc4)cc3-c3ccccc3)cc1COCCOCCOCCOCCOC2
inactive

Assay outcome for CCOC(=O)c1[nH]c2cccc3c2c1CC(Br)C3=O (configuration not stated) : what was it?
active
